molecular target: human orexin-2 receptor (Homo sapiens, UniProt O43614); construct: expressed in transfected cells; host or cells: CHO cells (G418 selection); test: Intracellular calcium measurement (FLIPR), orexin-2 receptor antagonism; type: cell-based; details: 1 uM compound; CHO cells expressing human orexin-2 receptor; 3 nM orexin-A agonist; read-out: % Inhibition of OX2R @ 1 uM compound
Sequence (O43614 whole entry): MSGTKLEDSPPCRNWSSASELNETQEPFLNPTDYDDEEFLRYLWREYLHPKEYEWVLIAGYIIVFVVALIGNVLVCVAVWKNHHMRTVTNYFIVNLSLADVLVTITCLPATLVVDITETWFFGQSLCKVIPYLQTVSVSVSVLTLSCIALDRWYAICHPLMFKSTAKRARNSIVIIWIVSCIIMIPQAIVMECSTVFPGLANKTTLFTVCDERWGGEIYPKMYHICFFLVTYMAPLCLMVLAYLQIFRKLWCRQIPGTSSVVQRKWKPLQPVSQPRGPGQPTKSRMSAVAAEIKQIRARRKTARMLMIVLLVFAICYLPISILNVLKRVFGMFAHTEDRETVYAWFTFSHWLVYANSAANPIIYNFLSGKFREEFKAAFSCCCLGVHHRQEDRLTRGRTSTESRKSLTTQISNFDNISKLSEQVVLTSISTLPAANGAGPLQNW
experimentalReadout: inhibition at 1 µM (%)

{"structureAsSmiles": "CCc1cnc(NC[C@@H]2CCCN2C(=O)c2c(-c3ccc(F)cc3)nc3sc(C)nn23)nc1", "inhibition at 1 µM / %": 12}

P: C[C@@H]1CCCN(C(=O)c2c(-c3ccccc3)nc3sccn23)[C@@H]1CNc1ccc(C(F)(F)F)cn1
Q: CCc1cnc(NC[C@@H]2CCCN2C(=O)c2c(-c3ccccc3)nc3occn23)nc1
In: Given P and given Q , which shows the smaller recorded inhibition at 1 µM? API: response body contains the label of the selected item.
Out: Q
(Q: 3.3%, P: 10.7%)

A: CCc1cnc(NC[C@@H]2CCCN2C(=O)c2c(-c3ccccc3F)nc3sccn23)nc1
B: O=C(c1c(-c2ccccc2)nc2occn12)N1CCC[C@H]1Cn1ccc(-c2ccccc2)n1
In: Could you determine which record has the numerically smaller inhibition at 1 µM? Candidates: A and B # answer = label of selected item
Out: A

P: CCc1cnc(NC[C@@H]2[C@H](C)CCCN2C(=O)c2c(-c3ccccc3)nc3occn23)nc1
Q: O=C(c1c(-c2ccccc2F)nc2sccn12)N1CCC[C@H]1CNc1ccc(C(F)(F)F)cn1
In: So which one has the bigger inhibition at 1 µM here, P or Q ? Pick one; state its label.
Out: Q
(Q: 29%, P: 6.75%)

a: O=C(c1c(-c2ccccc2)nc2sccn12)N1CCC[C@H]1Cn1ccc(-c2ccccc2)n1
b: CCc1cnc(OC[C@@H]2CCCN2C(=O)c2c(-c3ccccc3)nc3occn23)nc1
c: Cc1nn2c(C(=O)N3CCC[C@@H](C)[C@H]3CNc3ccc(C(F)(F)F)cn3)c(-c3ccc(F)cc3)nc2s1
In: Put the entries in order of inhibition at 1 µM, starting with the largest number. // ordering of labels required in reply
Out: a, c, b

---

molecular target: human orexin-2 receptor (Homo sapiens, UniProt O43614); construct: expressed in transfected cells; host or cells: CHO cells (G418 selection); test: Intracellular calcium measurement (FLIPR), orexin-2 receptor antagonism; assay type: cell-based; conditions: 1 uM compound; CHO cells expressing human orexin-2 receptor; 3 nM orexin-A agonist; read-out: % Inhibition of OX2R @ 1 uM compound
experimentalReadout: inhibition at 1 µM (%)

Recorded results for 5 compounds are shown here.
{"structureAsSmiles": "CCc1cnc(NC[C@@H]2CCCN2C(=O)c2c(-c3ccccc3)nc3sccn23)nc1", "measurementUnit": "%", "measuredValue": 16.2}
{"structureAsSmiles": "CCc1cnc(NC[C@@H]2[C@H](C)CCCN2C(=O)c2c(-c3ccccc3)nc3sccn23)nc1", "measurementUnit": "%", "measuredValue": 9.37}
{"structureAsSmiles": "C[C@@H]1CCCN(C(=O)c2c(-c3ccccc3)nc3occn23)[C@@H]1CNc1ccc(C(F)(F)F)cn1", "measurementUnit": "%", "measuredValue": 1.8}
{"structureAsSmiles": "O=C(c1c(-c2ccccc2)nc2occn12)N1CCC[C@H]1CNc1ccc(C(F)(F)F)cn1", "measurementUnit": "%", "measuredValue": 14.4}
{"structureAsSmiles": "O=C(c1c(-c2ccc(F)cc2)nc2scnn12)N1CCC[C@H]1Cn1ccc(-c2ccccc2)n1", "measurementUnit": "%", "measuredValue": 34.4}

A: O=C(c1c(-c2ccccc2)nc2sccn12)N1CCC[C@H]1CNc1ccc(C(F)(F)F)cn1
B: O=C(c1c(-c2ccccc2)nc2occn12)N1CCC[C@H]1COc1ccc(C(F)(F)F)cn1
In: Pick one, A or B : lowest reported inhibition at 1 µM. Indicate which entry you chose by stating its label.
Out: B
(B: 14.9%, A: 25.4%)
